- TEST PROTOCOL: Contact angle of polypropylene glycol oil drop on surface-modified metal (Goniometer)
- Format: physicochemical
- TEST CONDITIONS: 0.1% surface modifier
PROPERTY MEASURED: CONTACT ANGLES (At 5 Minutes) Modine Solder (°)
One number for each entry, in °.

The reported value for "CCCCCCCC/C=C\CCCCCCCC(=O)O" in terms of CONTACT ANGLES (At 5 Minutes) Modine Solder is 51
